Values from ChEMBL document CHEMBL1140295

Biological target: Sodium-dependent dopamine transporter (Homo sapiens)
Sequence (Q01959 whole entry): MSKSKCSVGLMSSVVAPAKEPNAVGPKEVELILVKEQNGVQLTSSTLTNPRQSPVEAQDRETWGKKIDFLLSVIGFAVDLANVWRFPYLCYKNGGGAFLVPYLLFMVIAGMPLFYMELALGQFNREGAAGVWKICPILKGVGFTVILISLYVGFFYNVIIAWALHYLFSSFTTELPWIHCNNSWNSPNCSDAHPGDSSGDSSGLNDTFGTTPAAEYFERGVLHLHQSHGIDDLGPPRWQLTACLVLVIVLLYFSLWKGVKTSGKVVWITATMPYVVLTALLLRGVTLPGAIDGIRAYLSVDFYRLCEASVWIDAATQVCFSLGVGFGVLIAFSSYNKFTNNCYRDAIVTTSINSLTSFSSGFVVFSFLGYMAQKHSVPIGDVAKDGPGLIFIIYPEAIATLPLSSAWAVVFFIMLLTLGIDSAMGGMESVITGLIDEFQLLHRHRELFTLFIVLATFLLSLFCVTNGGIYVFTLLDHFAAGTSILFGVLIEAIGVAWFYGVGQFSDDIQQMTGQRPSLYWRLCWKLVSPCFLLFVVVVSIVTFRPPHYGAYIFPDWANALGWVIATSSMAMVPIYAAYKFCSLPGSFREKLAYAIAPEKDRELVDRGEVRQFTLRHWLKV
IC50 strictly under 20 nM means Y; at 20 nM or over means N.

Use these answered entries as a reference point.
compound	answer label
Cc1ccc([C@H]2CC3CCC([C@H]2c2ccc(C)cc2)N3C)cc1 (stereo partly drawn)	Y
COc1ccc([C@@H]2C3CCC(C[C@H]2c2ccc(C)cc2)N3C)cc1OC (stereo partly drawn)	N
CN1C2CCC1[C@H](c1ccccc1)[C@H](c1ccccc1)C2 (stereo partly drawn)	N
COC(=O)[C@@H]1C2CC[C@H](C[C@@H]1c1ccc(C)cc1)N2C	N
CN1C2CCC1[C@@H](c1ccccc1)[C@@H](c1ccccc1)C2 (stereo partly drawn)	Y

QUERY: Input COc1ccc([C@@H]2C3CCC(C[C@@H]2c2ccc(C)cc2)N3C)cc1 (stereo partly drawn) ; condition: IC50 strictly below 20 nM. Does it hold?
RESULT: Y

QUERY: Input COc1ccc([C@@H]2C3CCC(C[C@@H]2c2ccc(C)cc2)N3C)cc1OC (stereo partly drawn) ; condition: IC50 strictly below 20 nM. Does it hold?
RESULT: N

QUERY: Input Cc1ccc([C@@H]2C3CCC(C[C@@H]2c2ccccc2)N3C)cc1 (stereo partly drawn) ; condition: IC50 strictly below 20 nM. Does it hold?
RESULT: N

QUERY: Input Cc1ccc([C@@H]2CC3CCC([C@@H]2c2ccccc2)N3C)cc1 (stereo partly drawn) ; condition: IC50 strictly below 20 nM. Does it hold?
RESULT: N

QUERY: Input Cc1ccc([C@H]2C3CCC(C[C@H]2c2ccccc2)N3C)cc1 (stereo partly drawn) ; condition: IC50 strictly below 20 nM. Does it hold?
RESULT: N

QUERY: Input Cc1ccc([C@H]2CC3CCC([C@H]2c2ccc(F)cc2)N3C)cc1 (stereo partly drawn) ; condition: IC50 strictly below 20 nM. Does it hold?
RESULT: Y

QUERY: Input Cc1ccc([C@H]2CC3CCC([C@H]2c2ccccc2)N3C)cc1 (stereo partly drawn) ; condition: IC50 strictly below 20 nM. Does it hold?
RESULT: Y

QUERY: Input COc1ccc([C@H]2C3CCC(C[C@H]2c2ccc(C)cc2)N3C)cc1 (stereo partly drawn) ; condition: IC50 strictly below 20 nM. Does it hold?
RESULT: N

----------
Assay system Sodium-dependent serotonin transporter (Homo sapiens); read-out recorded as Ki.
Field format: number, assumed µM, no unit text.

Here's what some known entries look like.
compound	Ki [µM]
Cc1ccc([C@@H]2CC3CCC([C@@H]2c2ccccc2)N3C)cc1 (stereo partly drawn)	1.5
Cc1ccc([C@@H]2C3CCC(C[C@@H]2c2ccccc2)N3C)cc1 (stereo partly drawn)	4.1
COc1ccc([C@@H]2C3CCC(C[C@@H]2c2ccc(C)cc2)N3C)cc1 (stereo partly drawn)	0.41
Cc1ccc([C@@H]2CC3CCC([C@@H]2c2ccc(C)cc2)N3C)cc1 (stereo partly drawn)	0.91
CN1C2CCC1[C@@H](c1ccccc1)[C@@H](c1ccccc1)C2 (stereo partly drawn)	1.9
COc1ccc([C@@H]2C3CCC(C[C@H]2c2ccc(C)cc2)N3C)cc1OC (stereo partly drawn)	1.47

QUERY: Look up Ki: Cc1ccc([C@H]2C3CCC(C[C@H]2c2ccccc2)N3C)cc1 (stereo partly drawn)
RESULT: 1

QUERY: Look up Ki: COc1ccc([C@H]2C3CCC(C[C@H]2c2ccc(C)cc2)N3C)cc1 (stereo partly drawn)
RESULT: 0.376

QUERY: Look up Ki: COc1ccc([C@@H]2C3CCC(C[C@@H]2c2ccc(C)cc2)N3C)cc1OC (stereo partly drawn)
RESULT: 1.25

QUERY: Look up Ki: Cc1ccc([C@H]2CC3CCC([C@H]2c2ccc(C)cc2)N3C)cc1 (stereo partly drawn)
RESULT: 0.25

QUERY: Look up Ki: Cc1ccc([C@H]2CC3CCC([C@H]2c2ccccc2)N3C)cc1 (stereo partly drawn)
RESULT: 0.1

QUERY: Look up Ki: CN1C2CCC1[C@H](c1ccccc1)[C@H](c1ccccc1)C2 (stereo partly drawn)
RESULT: 3.7

QUERY: Look up Ki: Cc1ccc([C@H]2CC3CCC([C@H]2c2ccc(F)cc2)N3C)cc1 (stereo partly drawn)
RESULT: 0.025

----------
Assay system UniProtKB P31645; read-out recorded as IC50.
Field format: number, assumed nM, no unit text.

Here's what some known entries look like.
molecule	measurement
CN1C2CCC1[C@H](c1ccccc1)[C@H](c1ccccc1)C2 (stereo partly drawn)	41000
Cc1ccc([C@H]2CC3CCC([C@H]2c2ccc(F)cc2)N3C)cc1 (stereo partly drawn)	100

Please turn your attention to the following entry.
QUERY: What IC50 appears in the records for this molecule with UniProtKB P31645? COc1ccc([C@H]2C3CCC(C[C@H]2c2ccc(C)cc2)N3C)cc1 (stereo partly drawn)
RESULT: 1530

----------
Molecular target: Sodium-dependent noradrenaline transporter (Homo sapiens, UniProt P23975)
Sequence (P23975 whole entry): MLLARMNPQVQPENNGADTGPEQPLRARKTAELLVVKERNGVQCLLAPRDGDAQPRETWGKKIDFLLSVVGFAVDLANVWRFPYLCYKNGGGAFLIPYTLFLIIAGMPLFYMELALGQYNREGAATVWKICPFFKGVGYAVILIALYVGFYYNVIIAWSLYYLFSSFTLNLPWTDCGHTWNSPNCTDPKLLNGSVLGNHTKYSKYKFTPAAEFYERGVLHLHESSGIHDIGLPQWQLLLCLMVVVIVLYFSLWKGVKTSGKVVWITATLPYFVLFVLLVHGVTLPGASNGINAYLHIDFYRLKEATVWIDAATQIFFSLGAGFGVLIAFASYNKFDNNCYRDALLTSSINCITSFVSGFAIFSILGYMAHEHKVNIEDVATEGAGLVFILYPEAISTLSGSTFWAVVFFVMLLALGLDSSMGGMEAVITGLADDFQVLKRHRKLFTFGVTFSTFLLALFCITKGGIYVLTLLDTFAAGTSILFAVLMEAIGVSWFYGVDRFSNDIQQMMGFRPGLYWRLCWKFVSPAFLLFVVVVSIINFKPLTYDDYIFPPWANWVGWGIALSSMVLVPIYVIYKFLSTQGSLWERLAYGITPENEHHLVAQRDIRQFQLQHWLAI
Assay: Displacement of [3H]nisoxetine from NET
pKi: −log10 of the molar value.
Respond with fulfilled for pKi values of 6 and above, not fulfilled for values below.

compound	answer label
COC(=O)[C@@H]1C2CC[C@H](C[C@@H]1c1ccc(C)cc1)N2C	not fulfilled

QUERY: Is pKi at least 6? Consider Cc1ccc([C@@H]2CC3CCC([C@@H]2c2ccccc2)N3C)cc1 (stereo partly drawn)
RESULT: not fulfilled

----------
Target: Sodium-dependent noradrenaline transporter (Homo sapiens, UniProt P23975)
Catalogue of pIC50 values
To interpret pIC50, take it as minus log10 of a concentration measured in moles per litre.

Here's what some known entries look like.
compound	attribute measured	measurement
CN1C2CCC1[C@@H](c1ccccc1)[C@@H](c1ccccc1)C2 (stereo partly drawn)	pIC50	6.04
COc1ccc([C@@H]2C3CCC(C[C@@H]2c2ccc(C)cc2)N3C)cc1OC (stereo partly drawn)	pIC50	5.00

Please turn your attention to the following entry.
QUERY: Look up pIC50: CN1C2CCC1[C@H](c1ccccc1)[C@H](c1ccccc1)C2 (stereo partly drawn)
RESULT: 5.98

----------
Target: Sodium-dependent serotonin transporter (Homo sapiens, UniProt P31645)
Sequence (P31645 whole entry): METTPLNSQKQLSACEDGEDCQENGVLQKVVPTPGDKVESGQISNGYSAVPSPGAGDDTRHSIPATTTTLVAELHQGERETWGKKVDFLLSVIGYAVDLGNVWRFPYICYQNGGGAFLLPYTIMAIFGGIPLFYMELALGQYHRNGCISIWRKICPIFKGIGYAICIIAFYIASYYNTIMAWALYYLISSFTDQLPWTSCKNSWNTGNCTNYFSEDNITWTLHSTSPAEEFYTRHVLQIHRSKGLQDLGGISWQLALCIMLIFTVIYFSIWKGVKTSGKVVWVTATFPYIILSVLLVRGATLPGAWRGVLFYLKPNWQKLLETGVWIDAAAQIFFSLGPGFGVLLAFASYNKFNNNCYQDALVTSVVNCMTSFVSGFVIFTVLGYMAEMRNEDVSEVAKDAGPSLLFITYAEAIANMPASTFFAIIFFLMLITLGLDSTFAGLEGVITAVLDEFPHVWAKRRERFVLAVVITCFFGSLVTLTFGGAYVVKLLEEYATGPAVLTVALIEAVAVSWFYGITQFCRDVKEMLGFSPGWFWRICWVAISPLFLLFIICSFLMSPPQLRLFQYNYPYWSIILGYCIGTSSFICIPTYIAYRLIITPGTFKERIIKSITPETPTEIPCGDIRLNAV
attribute measured: pIC50
To interpret pIC50, take it as minus log10 of a concentration measured in moles per litre.

compound	attribute measured	measurement
Cc1ccc([C@@H]2CC3CCC([C@@H]2c2ccccc2)N3C)cc1 (stereo not given in full)	pIC50	4.80
COc1ccc([C@@H]2C3CCC(C[C@H]2c2ccc(C)cc2)N3C)cc1OC (stereo not given in full)	pIC50	4.79
Cc1ccc([C@@H]2CC3CCC([C@@H]2c2ccc(C)cc2)N3C)cc1 (stereo not given in full)	pIC50	5.00

QUERY: What pIC50 appears in the records for this compound with Sodium-dependent serotonin transporter (Homo sapiens, UniProt P31645)? CN1C2CCC1[C@@H](c1ccccc1)[C@@H](c1ccccc1)C2 (stereo not given in full)
RESULT: 4.68

----------
Assay system Sodium-dependent noradrenaline transporter (Homo sapiens, UniProt P23975); read-out recorded as pIC50.
To interpret pIC50, take it as minus log10 of a concentration measured in moles per litre.

compound	measurement
Cc1ccc([C@@H]2CC3CCC([C@@H]2c2ccccc2)N3C)cc1 (stereo not given in full)	5.31

QUERY: What pIC50 appears in the records for this compound with Sodium-dependent noradrenaline transporter (Homo sapiens, UniProt P23975)? Cc1ccc([C@H]2CC3CCC([C@H]2c2ccccc2)N3C)cc1 (stereo not given in full)
RESULT: 6.32

QUERY: What pIC50 appears in the records for this compound with Sodium-dependent noradrenaline transporter (Homo sapiens, UniProt P23975)? COC(=O)[C@@H]1C2CC[C@H](C[C@@H]1c1ccc(C)cc1)N2C
RESULT: 5.41

QUERY: What pIC50 appears in the records for this compound with Sodium-dependent noradrenaline transporter (Homo sapiens, UniProt P23975)? Cc1ccc([C@H]2CC3CCC([C@H]2c2ccc(F)cc2)N3C)cc1 (stereo not given in full)
RESULT: 6.88

QUERY: What pIC50 appears in the records for this compound with Sodium-dependent noradrenaline transporter (Homo sapiens, UniProt P23975)? Cc1ccc([C@H]2C3CCC(C[C@H]2c2ccccc2)N3C)cc1 (stereo not given in full)
RESULT: 5.33

QUERY: What pIC50 appears in the records for this compound with Sodium-dependent noradrenaline transporter (Homo sapiens, UniProt P23975)? COc1ccc([C@@H]2C3CCC(C[C@H]2c2ccc(C)cc2)N3C)cc1OC (stereo not given in full)
RESULT: 4.11

QUERY: What pIC50 appears in the records for this compound with Sodium-dependent noradrenaline transporter (Homo sapiens, UniProt P23975)? Cc1ccc([C@H]2CC3CCC([C@H]2c2ccc(C)cc2)N3C)cc1 (stereo not given in full)
RESULT: 6.11

QUERY: What pIC50 appears in the records for this compound with Sodium-dependent noradrenaline transporter (Homo sapiens, UniProt P23975)? Cc1ccc([C@@H]2CC3CCC([C@@H]2c2ccc(C)cc2)N3C)cc1 (stereo not given in full)
RESULT: 4.89

QUERY: What pIC50 appears in the records for this compound with Sodium-dependent noradrenaline transporter (Homo sapiens, UniProt P23975)? COc1ccc([C@@H]2C3CCC(C[C@@H]2c2ccc(C)cc2)N3C)cc1 (stereo not given in full)
RESULT: 6.55

QUERY: What pIC50 appears in the records for this compound with Sodium-dependent noradrenaline transporter (Homo sapiens, UniProt P23975)? Cc1ccc([C@@H]2C3CCC(C[C@@H]2c2ccccc2)N3C)cc1 (stereo not given in full)
RESULT: 5.21
